Biological target: T1, CD58 protein (purified cell-adhesion domain, domain 1) (UniProt P19256 29-215)
T1 sequence (looked up): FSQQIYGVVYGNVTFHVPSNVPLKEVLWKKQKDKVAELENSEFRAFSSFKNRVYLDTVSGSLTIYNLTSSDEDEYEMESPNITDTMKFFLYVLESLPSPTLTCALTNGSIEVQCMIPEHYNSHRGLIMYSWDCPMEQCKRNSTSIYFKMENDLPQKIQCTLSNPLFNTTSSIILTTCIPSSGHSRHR
Assay: SPR
pKd: −log10 of the molar value. Bridges are numbered along the chain shown (N, C = ends).
property name: pKd

Please indicate pKd recorded for cyclo(CTKSIPPICFPDGR) (disulfide 1-9 (inferred)) [sunflower trypsin inhibitor SFTI-1]
< 3.30
